Exercise: for every item that follows, state its recorded helicity.
Assay: circular dichroism
Experimental conditions: 50 mM phosphate buffer; pH 7; 20 °C; 100 uM
Where a SMILES comes first, the peptide text is derived from it. Bridges are numbered along the chain shown (N, C = ends). [ ]: non-standard residue; d: D form. S5 = C=CCCC[C@](C)(N)C(=O)O
Answers are plain numbers, in %.

Example cases with answers are listed next.
CC[C@H](C)[C@H](NC(=O)[C@@H]1CCCN1C(=O)[C@H](CC(C)C)NC(C)=O)C(=O)N[C@@H](CO)C(=O)N[C@H](C(=O)N[C@H](C(=O)N[C@@H](CCCNC(=N)N)C(=O)N[C@@H](CCC(=O)O)C(=O)N[C@H](C(=O)N[C@@H](C)C(=O)N[C@@H](CC(C)C)C(=O)N[C@@H](CC(C)C)C(=O)N[C@@H](CCCNC(=N)N)C(=O)N[C@@H](CCCNC(=N)N)C(=O)N[C@@H](CC(C)C)C(N)=O)C(C)C)C(C)C)[C@@H](C)O [CDK4 C peptide short] (Ac-LPISTVREVALLRRL-NH2); 14
CC(=O)N[C@@H](CS)C(=O)N[C@@H](C)C(=O)N1CCC[C@H]1C(=O)N[C@@H](C)C(=O)N[C@@H](CO)C(=O)N[C@H](C(=O)N[C@@H](C)C(=O)N[C@@H](C)C(=O)N[C@@]1(C)CCCC=CCCC[C@@](C)(C(=O)N[C@@H](C)C(=O)N[C@@H](CCCNC(=N)N)C(=O)N[C@@H](CC(C)C)C(N)=O)NC(=O)[C@H](CC(C)C)NC(=O)[C@H](C)NC(=O)[C@H](CCCCN)NC1=O)[C@@H](C)O (Ac-CAPASTAA[S5]KAL[S5]ARL-NH2; staple 9-13); 34
CC[C@H](C)[C@H](NC(=O)[C@@H]1CCCN1C(=O)[C@H](CC(C)C)NC(=O)[C@H](C)N)C(=O)N[C@@H](CO)C(=O)N[C@H](C(=O)N[C@H](C(=O)N[C@@H](CCCNC(=N)N)C(=O)N[C@@]1(C)CCCC=CCCC[C@@](C)(C(=O)N[C@@H](CCCNC(=N)N)C(=O)N[C@@H](CCCNC(=N)N)C(=O)N[C@@H](CC(C)C)C(N)=O)NC(=O)[C@H](CC(C)C)NC(=O)[C@H](C)NC(=O)[C@H](C(C)C)NC1=O)C(C)C)[C@@H](C)O [P2shortA] (H-ALPISTVR[S5]VAL[S5]RRL-NH2; staple 9-13); 74

Proceeding to the next compound to report its helicity.
Supply reported helicity belonging to this compound: CC[C@H](C)[C@H](NC(=O)[C@@H]1CCCN1C(=O)[C@H](CC(C)C)NC(=O)[C@H](CS)NC(C)=O)C(=O)N[C@@H](CO)C(=O)N[C@H](C(=O)N[C@H](C(=O)N[C@@H](CCCNC(=N)N)C(=O)N[C@@]1(C)CCCC=CCCC[C@@](C)(C(=O)N[C@@H](CCCNC(=N)N)C(=O)N[C@@H](CCCNC(=N)N)C(=O)N[C@@H](CC(C)C)C(N)=O)NC(=O)[C@H](CC(C)C)NC(=O)[C@H](C)NC(=O)[C@H](C(C)C)NC1=O)C(C)C)[C@@H](C)O [P2short] (Ac-CLPISTVR[S5]VAL[S5]RRL-NH2; staple 9-13) 77
